Record form. Attribute: DC50. Fill in for each entry.
# studyTarget: Androgen Receptor (Homo sapiens, UniProt P10275+P40337, T878A)
# Construct: Compounds have been evaluated in this assay in LNCaP and/or VCaP cells utilizing similar protocols; endogenous in cells; host or cells: LNCaP cells
# Sequence (P10275 whole entry T878A): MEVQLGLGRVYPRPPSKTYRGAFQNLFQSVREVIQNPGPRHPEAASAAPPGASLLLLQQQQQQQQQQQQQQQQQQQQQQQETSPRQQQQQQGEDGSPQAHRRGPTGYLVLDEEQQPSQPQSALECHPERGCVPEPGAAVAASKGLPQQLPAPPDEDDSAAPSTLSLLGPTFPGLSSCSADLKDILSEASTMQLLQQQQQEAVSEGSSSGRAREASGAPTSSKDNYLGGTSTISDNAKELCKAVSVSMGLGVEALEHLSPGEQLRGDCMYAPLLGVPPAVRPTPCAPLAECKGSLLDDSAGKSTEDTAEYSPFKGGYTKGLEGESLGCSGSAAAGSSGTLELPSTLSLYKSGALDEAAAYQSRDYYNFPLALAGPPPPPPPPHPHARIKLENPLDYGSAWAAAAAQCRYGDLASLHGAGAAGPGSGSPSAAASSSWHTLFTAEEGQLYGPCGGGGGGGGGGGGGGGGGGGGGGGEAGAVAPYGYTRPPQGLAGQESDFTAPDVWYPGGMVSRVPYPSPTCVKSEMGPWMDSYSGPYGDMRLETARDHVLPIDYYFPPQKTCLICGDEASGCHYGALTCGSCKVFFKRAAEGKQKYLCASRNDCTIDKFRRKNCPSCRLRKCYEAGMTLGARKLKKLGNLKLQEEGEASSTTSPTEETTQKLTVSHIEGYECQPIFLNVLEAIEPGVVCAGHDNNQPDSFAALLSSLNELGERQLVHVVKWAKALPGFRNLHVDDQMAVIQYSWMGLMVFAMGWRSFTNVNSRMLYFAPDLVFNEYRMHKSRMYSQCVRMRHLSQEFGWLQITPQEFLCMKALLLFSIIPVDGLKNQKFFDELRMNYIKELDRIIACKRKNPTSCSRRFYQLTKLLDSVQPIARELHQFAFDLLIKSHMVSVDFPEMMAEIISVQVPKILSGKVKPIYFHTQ
# Sequence (P40337 whole entry): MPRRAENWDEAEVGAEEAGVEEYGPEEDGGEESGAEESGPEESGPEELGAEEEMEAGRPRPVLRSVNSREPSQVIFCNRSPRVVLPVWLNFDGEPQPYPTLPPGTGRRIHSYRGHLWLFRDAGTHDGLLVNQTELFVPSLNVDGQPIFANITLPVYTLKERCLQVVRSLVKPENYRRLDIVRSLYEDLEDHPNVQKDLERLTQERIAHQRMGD
# Sequence (Q15369 whole entry partner): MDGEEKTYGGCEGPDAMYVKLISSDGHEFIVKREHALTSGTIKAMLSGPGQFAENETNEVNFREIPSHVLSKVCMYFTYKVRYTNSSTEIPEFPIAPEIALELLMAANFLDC
# Sequence (Q15370 whole entry partner): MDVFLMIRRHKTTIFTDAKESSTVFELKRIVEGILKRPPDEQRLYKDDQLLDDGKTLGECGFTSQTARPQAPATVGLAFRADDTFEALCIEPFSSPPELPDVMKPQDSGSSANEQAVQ
# methodSummary: Androgen Receptor ELISA assay (PathScan AR ELISA) in LNCaP cells: AR degradation, Dmax and DC50
# Type: cell-based
# protocolConditions: concentration that caused 50% Androgen Receptor degradation

Challenge: Complete the entry with DC50 for `Cc1ncsc1-c1ccc(CNC(=O)[C@@H]2C[C@@H](O)CN2C(=O)[C@H](C(C)C)N2Cc3ccccc3C2=O)c(OCCCCOc2ccc(N3C(=S)N(c4ccc(C#N)c(C(F)(F)F)c4)C(=O)C3(C)C)cc2)c1`
Response given: 51 to 500 nM

Challenge: Return DC50 for the following molecule: `Cc1ncsc1-c1ccc(CNC(=O)[C@@H]2C[C@@H](O)CN2C(=O)[C@@H](NC(=O)C(C)C)C(C)(C)C)c(OCCOCCOCCOc2ccc(N3C(=S)N(c4ccc(C#N)c(C(F)(F)F)c4)C(=O)C3(C)C)cc2)c1`
Response given: > 501 nM

Challenge: Please indicate DC50 recorded for `Cc1ncsc1-c1ccc(CNC(=O)[C@@H]2C[C@@H](O)CN2C(=O)[C@H](C(C)C)N2Cc3ccccc3C2=O)c(OCCOCCOCCOCCOc2ccc(N3C(=S)N(c4ccc(C#N)c(C(F)(F)F)c4)C(=O)C3(C)C)cc2)c1`
Response given: > 501 nM

Challenge: Assign DC50 to the following record: Cc1ncsc1-c1ccc(CNC(=O)[C@@H]2C[C@@H](O)CN2C(=O)[C@@H](NC(=O)C(C)(C)C(O)CCCOCCCCCOc2ccc(N3C(=S)N(c4ccc(C#N)c(C(F)(F)F)c4)C(=O)C3(C)C)cc2)C(C)(C)C)cc1 (stereo partly shown)
Response given: > 501 nM

Challenge: Note DC50 for the molecule shown: `Cc1ncsc1-c1ccc(CNC(=O)[C@@H]2C[C@@H](O)CN2C(=O)[C@@H](NC(=O)c2ccc(OCCOC3CCN(C(=O)c4ccc(N5C(=S)N(c6ccc(C#N)c(C(F)(F)F)c6)C(=O)C5(C)C)cc4)CC3)cc2)C(C)(C)C)cc1`
Response given: > 501 nM

Challenge: Give DC50 for `Cc1ncsc1-c1ccc(CNC(=O)[C@@H]2C[C@@H](O)CN2C(=O)[C@@H](NC(=O)COCCCOC2CCN(C(=O)c3ccc(N4C(=S)N(c5ccc(C#N)c(C(F)(F)F)c5)C(=O)C4(C)C)cc3)CC2)C(C)(C)C)cc1`
Response given: > 501 nM

Challenge: Report DC50 for `Cc1ncsc1-c1ccc(CNC(=O)[C@@H]2C[C@@H](O)CN2C(=O)[C@@H](NC(=O)c2ccc(OCCOCCCCOc3ccc(N4C(=S)N(c5ccc(C#N)c(C(F)(F)F)c5)C(=O)C4(C)C)cc3)cc2)C(C)(C)C)cc1`
Response given: 51 to 500 nM

Challenge: Recall and state the measured DC50 for `Cc1ncsc1-c1ccc(CNC(=O)[C@@H]2C[C@@H](O)CN2C(=O)[C@@H](NC(=O)OCCOCCOc2ccc(-c3ccc(N4C(=S)N(c5ccc(C#N)c(C(F)(F)F)c5)C(=O)C4(C)C)cc3F)cc2)C(C)(C)C)cc1` .
Response given: < 50 nM

Challenge: Respond only with DC50 recorded for `CC(=O)N[C@H](C(=O)N1C[C@H](O)C[C@H]1C(=O)NCc1ccc(-c2scnc2C)cc1OCCOCCOCCOc1ccc(N2C(=S)N(c3ccc(C#N)c(C(F)(F)F)c3)C(=O)C2(C)C)cc1)C(C)(C)C`
Response given: 51 to 500 nM

Challenge: Answer with reported DC50 of `Cc1ncsc1-c1ccc(CNC(=O)[C@@H]2C[C@@H](O)CN2C(=O)[C@H](C(C)C)N2Cc3cc(CCCCCOc4ccc(N5C(=S)N(c6ccc(C#N)c(C(F)(F)F)c6)C(=O)C5(C)C)cc4)ccc3C2=O)cc1`
Response given: 51 to 500 nM
